- Test system: human lung cancer cells (LC6)
- METHOD NOTES: Tumor growth inhibitory activity against various human tumor cells in nude mice: LC6
- Assay type: in vivo
- CONDITION CONTEXT: LC6, Oral, 30 × 2 mg/kg × number of times, 5 days
REPORTED ENDPOINT: TGIR (%)
Give just the numeric value; % need not be written.

Data request: Please report TGIR for the following compound: COc1cc2nccc(Oc3ccc(NC(=O)NC(=O)Cc4ccc(F)cc4)c(F)c3)c2cc1OC
Data returned: 18

Data request: Please report TGIR for the following compound: COc1cc2c(Oc3ccc(NC(=O)NC(=O)Cc4ccc(F)cc4)c(F)c3)ccnc2cc1OCCCN1CCOCC1
Data returned: 37

Data request: Please report TGIR for the following compound: COc1cc2c(Oc3ccc(NC(=S)NC(=O)Cc4ccccc4Cl)cc3F)ccnc2cc1OCCCN1CCOCC1
Data returned: 48

Data request: Please report TGIR for the following compound: COc1cc2nccc(Oc3ccc(NC(=S)NC(=O)Cc4ccc(F)cc4)cc3F)c2cc1OC
Data returned: 27

Data request: Please report TGIR for the following compound: COc1cc2c(Oc3ccc(NC(=S)NC(=O)Cc4ccccc4)cc3F)ccnc2cc1OCCCN1CCOCC1
Data returned: 35

Data request: Please report TGIR for the following compound: COc1cc2c(Oc3ccc(NC(=O)NC(=O)Cc4ccccc4)cc3F)ccnc2cc1OCCCN1CCOCC1
Data returned: 26

----------
Consider the following compounds and their measured IC50 readings.
- STUDY TARGET: met (HGF receptor) in human gastric cancer cells MKN45 (Homo sapiens)
- Construct: endogenous in cells
- Sequence (P08581 25-1390): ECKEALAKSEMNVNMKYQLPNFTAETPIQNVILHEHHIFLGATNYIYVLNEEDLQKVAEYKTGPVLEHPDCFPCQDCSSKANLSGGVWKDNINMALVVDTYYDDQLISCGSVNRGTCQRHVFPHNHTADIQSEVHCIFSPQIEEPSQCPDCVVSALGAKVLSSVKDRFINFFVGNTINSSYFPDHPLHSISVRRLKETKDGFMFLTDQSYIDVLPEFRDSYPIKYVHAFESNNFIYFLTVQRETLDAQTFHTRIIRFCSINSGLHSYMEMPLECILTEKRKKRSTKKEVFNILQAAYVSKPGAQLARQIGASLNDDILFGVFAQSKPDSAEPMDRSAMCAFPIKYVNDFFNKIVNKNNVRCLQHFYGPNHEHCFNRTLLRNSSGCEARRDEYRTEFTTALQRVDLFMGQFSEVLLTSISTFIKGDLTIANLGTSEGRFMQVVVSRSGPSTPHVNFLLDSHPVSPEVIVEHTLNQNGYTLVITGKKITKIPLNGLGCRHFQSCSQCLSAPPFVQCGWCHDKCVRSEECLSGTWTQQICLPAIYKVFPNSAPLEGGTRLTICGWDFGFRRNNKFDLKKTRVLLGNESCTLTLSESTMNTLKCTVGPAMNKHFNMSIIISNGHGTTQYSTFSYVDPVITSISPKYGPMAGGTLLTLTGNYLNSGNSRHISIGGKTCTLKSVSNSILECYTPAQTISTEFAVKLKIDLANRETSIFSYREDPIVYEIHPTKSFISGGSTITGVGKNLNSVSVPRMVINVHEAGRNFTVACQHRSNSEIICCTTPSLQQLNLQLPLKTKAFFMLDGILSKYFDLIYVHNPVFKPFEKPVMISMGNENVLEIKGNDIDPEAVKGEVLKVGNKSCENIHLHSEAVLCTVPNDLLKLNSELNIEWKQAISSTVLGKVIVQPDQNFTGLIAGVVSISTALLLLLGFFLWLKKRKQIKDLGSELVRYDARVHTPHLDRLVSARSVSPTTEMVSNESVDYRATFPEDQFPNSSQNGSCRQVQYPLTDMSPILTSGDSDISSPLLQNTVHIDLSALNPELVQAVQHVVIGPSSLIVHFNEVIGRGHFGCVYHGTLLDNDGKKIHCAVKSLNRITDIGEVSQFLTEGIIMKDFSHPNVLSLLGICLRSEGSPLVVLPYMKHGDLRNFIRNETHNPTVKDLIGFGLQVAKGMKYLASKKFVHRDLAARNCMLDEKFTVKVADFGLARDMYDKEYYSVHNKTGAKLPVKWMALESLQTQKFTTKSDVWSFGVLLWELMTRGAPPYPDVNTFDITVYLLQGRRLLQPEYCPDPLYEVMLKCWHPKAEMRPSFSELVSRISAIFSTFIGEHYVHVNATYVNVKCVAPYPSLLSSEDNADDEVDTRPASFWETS
- METHOD NOTES: Inhibitory activity against met-autophosphorylation using ELISA method (2), MKN45 cells, HGF-independent
Give just the numeric value; nM need not be written.

The examples below pair each entry with its known result.
COc1cc2nccc(Oc3ccc(NC(=O)NC(=O)Cc4cc(F)cc(F)c4)cc3F)c2cc1OC
285
COc1cc2nccc(Oc3ccc(NC(=O)NC(=O)Nc4ccccc4-n4cccc4)cc3)c2cc1OC
614
CCOCCC(=O)NC(=S)Nc1ccc(Oc2ccnc3cc(OC)c(OC)cc23)cc1
92

Data request: Please report IC50 for the following compound: COc1cc2nccc(Oc3ccc(NC(=S)NC(=O)CCCC(C)C)cc3F)c2cc1OC
Data returned: 261

Data request: Please report IC50 for the following compound: COc1cc2nccc(Oc3ccc(NC(=O)NC(=O)Cc4ccc(F)cc4)c(F)c3)c2cc1OC
Data returned: 30.4

Data request: Please report IC50 for the following compound: COc1cc2c(Oc3ccc(NC(=S)NC(=O)Cc4cccc(F)c4)cc3F)ccnc2cc1OCC(O)CN1CCCCC1 (stereo not drawn)
Data returned: 23.4

Data request: Please report IC50 for the following compound: COc1cc2nccc(Oc3ccc(NC(=S)NC(=O)Cc4c(F)ccc(F)c4F)cc3F)c2cc1OC
Data returned: 444

Data request: Please report IC50 for the following compound: COc1cc2nccc(Oc3ccc(NC(=S)NC(=O)Cc4cccc(F)c4)c(F)c3)c2cc1OC
Data returned: 182

Data request: Please report IC50 for the following compound: COc1cc2c(Oc3ccc(NC(=S)NC(=O)Cc4ccccc4)cc3F)ccnc2cc1OCCN1CCN(C)CC1
Data returned: 26.7

----------
- STUDY TARGET: met (HGF receptor) in human gastric cancer cells MKN45 (Homo sapiens)
- Construct: endogenous in cells
- METHOD NOTES: Inhibitory activity against met-autophosphorylation using ELISA method (2), MKN45 cells, HGF-independent
Consider the following compounds and their measured IC50 readings.

COc1cc2nccc(Oc3ccc(NC(=S)NC(=O)c4cccc5ccccc45)c(F)c3)c2cc1OC
0.132 µM
COc1cc2nccc(Oc3ccc(NC(=S)NC(=O)Cc4ccccc4[N+](=O)[O-])cc3)c2cc1OC
0.982 µM
COc1cc2nccc(Oc3ccc(NC(=O)CC(=O)Nc4cccc(Cl)c4)cc3)c2cc1OC
0.228 µM
COc1cc2nccc(Oc3ccc(NC(=S)NC(=O)Cc4cccc(Cl)c4)cc3Cl)c2cc1OC
0.252 µM
COc1cc2nccc(Oc3ccc(NC(=O)NC(=O)Cc4cccc(F)c4F)cc3F)c2cc1OC
0.243 µM
COc1cc2c(Oc3ccc(NC(=O)NC(=O)Cc4ccccc4)cc3F)ccnc2cc1OCCCCl
0.291 µM
COc1cc2nccc(Oc3ccc(NC(=S)NC(=O)Cc4ccccc4C(F)(F)F)cc3F)c2cc1OC
0.226 µM

Data request: Recall the reported IC50 of COc1cc2nccc(Oc3ccc(NC(=O)NC(=O)Cc4cccs4)cc3Cl)c2cc1OC when tested on met (HGF receptor) in human gastric cancer cells MKN45 (Homo sapiens).
Data returned: 0.171 µM
